The origin of these recorded values is PubChem BioAssay (EPA / NIEHS).

- method description: ATG_M_32_TRANS: Attagene TRANS-FACTORIAL HepG2 Assay for M32 Transcription Factor (Internal Marker) (AID 2282984)
- condition summary: HepG2 Attagene TRANS M32 internal marker reporter
- Description: ATG_TRANS is a cell-based, multiplexed-readout assay that uses HepG2, a human liver cell line, with measurements taken at 24 hours after chemical dosing in a 24-well plate.ATG_M_32_TRANS is one of 30 assay component(s) measured or calculated from the ATG_TRANS assay. […] This assay endpoint, ATG_M_32_TRANS, was analyzed in the positive analysis fitting direction relative to DMSO as the negative control and baseline of activity. […]
Inconclusive results are not listed. Calls of active or inactive are those of the source. The calls were made as follows: active = hit-call score of the fitted dose curve at least 0.9, where 1 is the maximum; inconclusive = response in the unintended direction; inactive = score below 0.9.
Classes used: active, inactive

[
  {
    "compound": "N=c1ccn2c(n1)O[C@H]1[C@H](O)[C@@H](CO)O[C@H]12",
    "assigned class": "inactive"
  },
  {
    "compound": "c1cc(C(c2ccc(OCC3CO3)cc2)C(c2ccc(OCC3CO3)cc2)c2ccc(OCC3CO3)cc2)ccc1OCC1CO1 (stereo unspecified)",
    "assigned class": "inactive"
  },
  {
    "compound": "COC(=O)C1=C(C)NC(C)=C(C(=O)OCC(C)C)C1c1ccccc1[N+](=O)[O-] (stereo unspecified)",
    "assigned class": "inactive"
  },
  {
    "compound": "Nc1ccc(Cl)cc1Cl",
    "assigned class": "inactive"
  },
  {
    "compound": "O=c1[nH]nc(-c2ccc([N+](=O)[O-])o2)o1",
    "assigned class": "inactive"
  },
  {
    "compound": "Cc1ccc(C(C)(C)C)cc1",
    "assigned class": "inactive"
  },
  {
    "compound": "O=[N+]([O-])c1ccc(CO)cc1",
    "assigned class": "inactive"
  },
  {
    "compound": "[Cl][Nd]([Cl])[Cl]",
    "assigned class": "inactive"
  },
  {
    "compound": "CC(C)(C)c1ccc(N)cc1",
    "assigned class": "inactive"
  },
  {
    "compound": "CCOC(=O)Cc1cccc2ccccc12",
    "assigned class": "inactive"
  },
  {
    "compound": "N#CCc1ccc(Cl)cc1Cl",
    "assigned class": "inactive"
  },
  {
    "compound": "CCCCCCCC/C=C\\CCCCCCCC(=O)OCCO",
    "assigned class": "inactive"
  },
  {
    "compound": "CC1=CC[C@H](C(C)C)C=C1",
    "assigned class": "inactive"
  },
  {
    "compound": "Cc1cc(C)c(C)cc1C",
    "assigned class": "inactive"
  },
  {
    "compound": "C=C[C@](C)(O)CC[C@@H]1[C@@]2(C)CCCC(C)(C)[C@@H]2CC[C@@]1(C)O",
    "assigned class": "inactive"
  },
  {
    "compound": "C=CC(C)(C)C",
    "assigned class": "inactive"
  },
  {
    "compound": "CCCC(=O)OCc1ccccc1",
    "assigned class": "inactive"
  },
  {
    "compound": "O=C(Nc1cccc(C(F)(F)F)c1)c1cc(Br)cc(Br)c1O",
    "assigned class": "inactive"
  },
  {
    "compound": "CCc1nccnc1C",
    "assigned class": "inactive"
  },
  {
    "compound": "C(=CC=Nc1ccccc1)C=CNc1ccccc1",
    "assigned class": "inactive"
  },
  {
    "compound": "O=C(/C=C/C=C/c1ccc2c(c1)OCO2)N1CCCCC1",
    "assigned class": "inactive"
  },
  {
    "compound": "O=C(C(Cl)Cl)N1CCOC12CCCCC2",
    "assigned class": "inactive"
  },
  {
    "compound": "CC(=O)OCC(=O)[C@@]12N=C(C)O[C@@H]1C[C@H]1[C@@H]3CCC4=CC(=O)C=C[C@]4(C)[C@H]3[C@@H](O)C[C@@]12C",
    "assigned class": "inactive"
  },
  {
    "compound": "CC(=O)Nc1nnc(S(N)(=O)=O)s1",
    "assigned class": "inactive"
  },
  {
    "compound": "O=C(O)CCCC[C@@H]1SC[C@@H]2NC(=O)N[C@@H]21",
    "assigned class": "inactive"
  },
  {
    "compound": "Nc1cccc(C(F)(F)F)c1",
    "assigned class": "inactive"
  },
  {
    "compound": "O=C(O)CC(C(=O)O)C(CC(=O)O)C(=O)O (stereo unspecified)",
    "assigned class": "inactive"
  },
  {
    "compound": "CN(C)c1ccc(C(=N)c2ccc(N(C)C)cc2)cc1",
    "assigned class": "active"
  },
  {
    "compound": "Cc1ccc2c(c1)C(=O)c1ccccc1C2=O",
    "assigned class": "inactive"
  },
  {
    "compound": "[Cl][Bi]([Cl])([c]1ccccc1)([c]1ccccc1)[c]1ccccc1",
    "assigned class": "inactive"
  },
  {
    "compound": "CC=C1CC2C=CC1C2 (stereo unspecified)",
    "assigned class": "inactive"
  },
  {
    "compound": "CCOC(=O)[C@H](C)O",
    "assigned class": "inactive"
  },
  {
    "compound": "CC(C)(C)C1CCCCC1=O (stereo unspecified)",
    "assigned class": "inactive"
  },
  {
    "compound": "O=[N+]([O-])C1(Br)COCOC1",
    "assigned class": "inactive"
  },
  {
    "compound": "Cc1cc(C)c(C)c(C)c1",
    "assigned class": "inactive"
  },
  {
    "compound": "CNC(=S)NN",
    "assigned class": "inactive"
  },
  {
    "compound": "Nc1ccc(N=Nc2ccccc2)c(N)n1",
    "assigned class": "inactive"
  },
  {
    "compound": "CCC(C)(C)C1CCCCC1OC(C)=O (stereo unspecified)",
    "assigned class": "inactive"
  },
  {
    "compound": "C=C[Si](OC(C)=O)(OC(C)=O)OC(C)=O",
    "assigned class": "inactive"
  },
  {
    "compound": "CC(CC=O)CCCC(C)(C)O (stereo unspecified)",
    "assigned class": "inactive"
  },
  {
    "compound": "CCC(Cc1ccccc1)(C(=O)c1ccc(N2CCOCC2)cc1)N(C)C (stereo unspecified)",
    "assigned class": "inactive"
  },
  {
    "compound": "O=C1Nc2ccccc2C1(c1ccc(O)cc1)c1ccc(O)cc1",
    "assigned class": "inactive"
  },
  {
    "compound": "CCCCC/C=C\\C/C=C\\CCCCCCCC(=O)OC",
    "assigned class": "inactive"
  },
  {
    "compound": "CC1=NC(C)OC1C (stereo unspecified)",
    "assigned class": "inactive"
  },
  {
    "compound": "CC1=Nc2ccc3ccccc3c2C1(C)C",
    "assigned class": "inactive"
  },
  {
    "compound": "C/C=C\\C/C=C/CCCCCCCCOC(C)=O",
    "assigned class": "inactive"
  },
  {
    "compound": "CC(C)=CCC/C(C)=C\\C#N",
    "assigned class": "inactive"
  },
  {
    "compound": "Cc1cc(=O)n(-c2ccccc2)n1C",
    "assigned class": "inactive"
  },
  {
    "compound": "O=c1cc[nH]c(=S)[nH]1",
    "assigned class": "inactive"
  },
  {
    "compound": "CC(=O)Oc1ccc(C)cc1",
    "assigned class": "inactive"
  },
  {
    "compound": "CC(=O)C=CC1C(C)=CCC(C)C1(C)C (stereo unspecified)",
    "assigned class": "inactive"
  },
  {
    "compound": "CC(C)c1ccc(C=O)cc1",
    "assigned class": "inactive"
  },
  {
    "compound": "CCN(CC#N)c1cccc(C)c1",
    "assigned class": "inactive"
  },
  {
    "compound": "Cc1ccc(C2OC[C@@H]3OC(c4ccc(C)cc4)O[C@H]([C@H](O)CO)[C@@H]3O2)cc1 (stereo partly specified)",
    "assigned class": "inactive"
  },
  {
    "compound": "Cc1cnc(NC(=O)C2=C(O)c3ccccc3S(=O)(=O)N2C)s1",
    "assigned class": "inactive"
  },
  {
    "compound": "CC(=O)OCC(C)OC(C)=O (stereo unspecified)",
    "assigned class": "inactive"
  }
]
